- target: hTSHR (Homo sapiens, UniProt P16473)
- Construct: expressed in transfected cells
- Sequence (P16473 21-764): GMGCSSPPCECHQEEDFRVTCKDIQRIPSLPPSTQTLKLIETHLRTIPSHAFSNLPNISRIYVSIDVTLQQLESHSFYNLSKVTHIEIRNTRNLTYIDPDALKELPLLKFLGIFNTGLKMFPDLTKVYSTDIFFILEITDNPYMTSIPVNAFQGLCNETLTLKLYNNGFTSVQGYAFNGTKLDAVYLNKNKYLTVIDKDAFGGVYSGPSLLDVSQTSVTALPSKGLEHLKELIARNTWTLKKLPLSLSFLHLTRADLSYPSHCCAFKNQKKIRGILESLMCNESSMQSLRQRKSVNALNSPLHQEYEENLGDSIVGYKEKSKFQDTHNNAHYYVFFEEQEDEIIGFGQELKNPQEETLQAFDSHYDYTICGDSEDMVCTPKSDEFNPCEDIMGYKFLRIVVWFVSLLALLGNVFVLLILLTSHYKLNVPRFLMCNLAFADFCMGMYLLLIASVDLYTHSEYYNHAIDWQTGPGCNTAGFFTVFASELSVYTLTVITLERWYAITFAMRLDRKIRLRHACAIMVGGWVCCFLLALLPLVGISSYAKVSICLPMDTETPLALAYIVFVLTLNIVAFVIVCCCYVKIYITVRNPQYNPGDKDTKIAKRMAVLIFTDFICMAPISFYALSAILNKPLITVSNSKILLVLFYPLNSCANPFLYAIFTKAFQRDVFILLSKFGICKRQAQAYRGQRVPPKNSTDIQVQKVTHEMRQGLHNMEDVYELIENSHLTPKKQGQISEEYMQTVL
- assay.procedure: hTSHR TR-FRET cAMP Assay (inhibition of M22-stimulated cAMP production)
- Format: cell-based
- condition.details: Expi293F Inducible cells stably expressing hTSHR; cAMP HTRF; stimulated with EC80 of anti-TSHR antibody M22; 15 min compound preincubation, 30 min at 37° C.; read-out: Activity (IC50 bins)
Reported IC50 values for a set of molecules

C[C@@H](c1cccc(OC(F)(F)F)c1)n1c(=O)cnc2cc(NC(=O)NC3(C(F)(F)F)CCCC3)ccc21 | 100 to 1000 nM
C[C@H]1Cc2cc(NC(=O)NC(C)(C)C)c(F)cc2N(Cc2ccccc2)C1=O (single isomer, unassigned) | > 1000 nM
C[C@H]1Oc2nc(NC(=O)NC(C)(C)C)ccc2N(Cc2cccc(Cl)c2)C1=O | 100 to 1000 nM

Below: the item to evaluate.
Param item = `C[C@H]1Oc2c(cc(C#N)c(NC(=O)NC(C)(C)C)c2F)N(Cc2cccc(C(F)F)c2)C1=O` ; retrieve measured IC50.
< 100 nM

* * *

- target: hTSHR (Homo sapiens, UniProt P16473)
- Construct: expressed in transfected cells
- assay.procedure: hTSHR TR-FRET cAMP Assay (inhibition of M22-stimulated cAMP production)
- Assay type: cell-based
- condition.details: Expi293F Inducible cells stably expressing hTSHR; cAMP HTRF; stimulated with EC80 of anti-TSHR antibody M22; 15 min compound preincubation, 30 min at 37° C.; read-out: Activity (IC50 bins)
readout.name: IC50

Solved entries:
C[C@H]1Oc2cc(NC(=O)NC3(C(F)(F)F)CC(F)(F)C3)ccc2N([C@@H](C)c2ccccc2)C1=O [Example 264] | 100 to 1000 nM
C[C@H]1Oc2cc(NC(=O)NC3(C)COC3)ccc2N([C@@H](C)c2ccccc2)C1=O [Example 262] | > 1000 nM

State the recorded IC50 for this entry: CC(C)(C)NC(=O)Nc1cc2c(cc1Cl)N(Cc1ccccc1)C(=O)CC2 [Example 66]
100 to 1000 nM

Any idea what IC50 was measured for C[C@H](c1cccc(Cl)c1)N1C(=O)N(C)Cc2cc(NC(=O)NC(C)(C)C)ccc21 [Example 52] ?
> 1000 nM

* * *

- target: hTSHR (Homo sapiens, UniProt P16473)
- Construct: expressed in transfected cells
- assay.procedure: hTSHR TR-FRET cAMP Assay (inhibition of M22-stimulated cAMP production)
- Format: cell-based
- condition.details: Expi293F Inducible cells stably expressing hTSHR; cAMP HTRF; stimulated with EC80 of anti-TSHR antibody M22; 15 min compound preincubation, 30 min at 37° C.; read-out: Activity (IC50 bins)
Quick reference for IC50 among some compounds

Give its IC50 value. Item: CC(C)(C)NC(=O)Nc1ccc2c(c1)oc(=O)n2Cc1ccccc1 [Example 38]
> 1000 nM

May I ask what IC50 has been recorded for C[C@@H](c1cccc(OC(F)(F)F)c1)n1c(=O)cnc2cc(NC(=O)C3CCCC3)ccc21 [Example 315] ?
100 to 1000 nM

Which IC50 value is on record for Cc1nc2cc(NC(=O)NC(C)(C)C)ccc2n(Cc2ccccc2)c1=O [Example 272] ?
> 1000 nM

// query IC50 value for entry CC(c1cccc2c1cnn2CCC(F)(F)F)n1c(=O)cnc2cc(NC(=O)NC(C)(C)C)ccc21 (stereo not shown) [Example 251]
> 1000 nM
